# TARGET_OF_ASSAY: ELIC I208A (Dickeya chrysanthemi, UniProt P0C7B7, I208A)
# METHOD: TEVC cysteamine-induced current, ELIC I208A
# SETTINGS: Xenopus laevis oocytes; ±SD; n=8
MEASURED_METRIC: EC50
Kindly report the value followed by its unit.

Hi! What's the reported EC50 for NCCS on ELIC I208A (Dickeya chrysanthemi, UniProt P0C7B7, I208A)?
250 µM

* * *

# TARGET_OF_ASSAY: ELIC L213A (Dickeya chrysanthemi, UniProt P0C7B7, L213A)
# Sequence (P0C7B7 whole entry L213A): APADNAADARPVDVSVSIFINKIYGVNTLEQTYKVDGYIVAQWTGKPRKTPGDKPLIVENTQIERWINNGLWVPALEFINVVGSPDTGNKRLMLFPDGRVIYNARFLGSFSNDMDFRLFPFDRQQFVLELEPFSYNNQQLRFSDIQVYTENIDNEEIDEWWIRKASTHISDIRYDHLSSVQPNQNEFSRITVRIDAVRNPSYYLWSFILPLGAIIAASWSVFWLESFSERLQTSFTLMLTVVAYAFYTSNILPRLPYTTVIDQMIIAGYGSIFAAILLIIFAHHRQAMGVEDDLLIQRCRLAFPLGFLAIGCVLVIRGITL
# METHOD: TEVC cysteamine-induced current, ELIC L213A
# SETTINGS: Xenopus laevis oocytes; ±SD; n=8
MEASURED_METRIC: EC50

What EC50 value was documented for this compound, NCCS ?
320 µM

* * *

# TARGET_OF_ASSAY: ELIC F222A (Dickeya chrysanthemi, UniProt P0C7B7, F222A)
# Sequence (P0C7B7 whole entry F222A): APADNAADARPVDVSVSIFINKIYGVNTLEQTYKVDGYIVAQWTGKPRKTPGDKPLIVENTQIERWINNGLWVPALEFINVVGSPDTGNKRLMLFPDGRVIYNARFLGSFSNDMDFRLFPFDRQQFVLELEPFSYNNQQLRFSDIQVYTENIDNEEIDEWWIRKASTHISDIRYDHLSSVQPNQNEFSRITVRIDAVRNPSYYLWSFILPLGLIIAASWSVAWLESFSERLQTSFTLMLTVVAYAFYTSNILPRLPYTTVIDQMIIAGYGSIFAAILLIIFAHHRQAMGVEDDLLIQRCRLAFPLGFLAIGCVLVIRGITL
# METHOD: TEVC cysteamine-induced current, ELIC F222A
# SETTINGS: Xenopus laevis oocytes; ±SD; n=8
MEASURED_METRIC: pEC50
pEC50 (log units): -log10 of the concentration in mol/L.

# get_value(readout='pEC50', item= NCCS [cysteamine] )
4.05

* * *

# TARGET_OF_ASSAY: ELIC L278A (Dickeya chrysanthemi, UniProt P0C7B7, L278A)
# Sequence (P0C7B7 whole entry L278A): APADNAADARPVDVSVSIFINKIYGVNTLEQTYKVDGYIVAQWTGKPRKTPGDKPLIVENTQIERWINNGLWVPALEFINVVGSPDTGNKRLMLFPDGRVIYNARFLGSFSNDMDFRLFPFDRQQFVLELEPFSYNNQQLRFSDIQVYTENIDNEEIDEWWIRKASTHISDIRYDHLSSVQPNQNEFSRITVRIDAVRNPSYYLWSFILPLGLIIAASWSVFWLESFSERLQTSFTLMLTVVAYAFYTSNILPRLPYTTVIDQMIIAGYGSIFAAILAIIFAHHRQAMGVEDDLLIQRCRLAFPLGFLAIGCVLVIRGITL
# METHOD: TEVC cysteamine-induced current, ELIC L278A
# SETTINGS: Xenopus laevis oocytes; ±SD; n=8
MEASURED_METRIC: EC50

Value wanted: EC50 (ELIC L278A (Dickeya chrysanthemi, UniProt P0C7B7, L278A)) of entry NCCS [cysteamine]
1.07 mM

* * *

# TARGET_OF_ASSAY: ELIC Q263A (Dickeya chrysanthemi, UniProt P0C7B7, Q263A)
# METHOD: TEVC cysteamine-induced current, ELIC Q263A
# SETTINGS: Xenopus laevis oocytes; ±SD; n=8
MEASURED_METRIC: pEC50
Formally, pEC50 is defined as -log10 of the concentration c, with c in mol/L.

Record lookup: for ELIC Q263A (Dickeya chrysanthemi, UniProt P0C7B7, Q263A), what pEC50 belongs to NCCS ?
3.24

* * *

# TARGET_OF_ASSAY: ELIC W223A (Dickeya chrysanthemi, UniProt P0C7B7, W223A)
# Construct: expressed in transfected cells; host or cells: Xenopus laevis oocytes injected with cRNA
# METHOD: TEVC cysteamine-induced current, ELIC W223A
# Assay type: cell-based
# SETTINGS: Xenopus laevis oocytes; ±SD; n=8
# From the text: To examine how different physical interactions at the M4-M1/M3 interface in both GLIC and ELIC (Fig. 1) influence function, we mutated each residue to Ala, and characterized how each mutation influenced agonist-induced channel gating using two-electrode voltage clamp electrophysiology. Both GLIC and ELIC are cation-selective ion channels that transiently gate open in response to agonist binding, although GLIC responds to protons while ELIC responds to primary amines, such as cysteamine, [34]. […]
MEASURED_METRIC: EC50 (µM)
Respond numerically; units are µM and should not be typed.

# EC50 lookup, item NCCS
1230

* * *

# TARGET_OF_ASSAY: ELIC G268A (Dickeya chrysanthemi, UniProt P0C7B7, G268A)
# Sequence (P0C7B7 whole entry G268A): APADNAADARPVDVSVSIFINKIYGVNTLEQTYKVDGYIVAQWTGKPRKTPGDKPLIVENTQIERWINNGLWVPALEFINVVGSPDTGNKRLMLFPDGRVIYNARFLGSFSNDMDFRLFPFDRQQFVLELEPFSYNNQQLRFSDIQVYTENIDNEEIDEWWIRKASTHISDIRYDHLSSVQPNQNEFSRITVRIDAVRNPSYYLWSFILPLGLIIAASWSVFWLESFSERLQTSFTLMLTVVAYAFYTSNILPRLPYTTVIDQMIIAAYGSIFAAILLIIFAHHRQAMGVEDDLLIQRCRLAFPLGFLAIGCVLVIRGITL
# METHOD: TEVC cysteamine-induced current, ELIC G268A
# SETTINGS: Xenopus laevis oocytes; ±SD; n=8
MEASURED_METRIC: pEC50
Scale: pEC50 equals -log10([C]), with [C] in mol/L.

Consider the compound shown here: NCCS What is its recorded pEC50?
2.92

* * *

# TARGET_OF_ASSAY: ELIC S271A + F303A (Dickeya chrysanthemi, UniProt P0C7B7, F303A/S271A)
# Sequence (P0C7B7 whole entry S271A/F303A): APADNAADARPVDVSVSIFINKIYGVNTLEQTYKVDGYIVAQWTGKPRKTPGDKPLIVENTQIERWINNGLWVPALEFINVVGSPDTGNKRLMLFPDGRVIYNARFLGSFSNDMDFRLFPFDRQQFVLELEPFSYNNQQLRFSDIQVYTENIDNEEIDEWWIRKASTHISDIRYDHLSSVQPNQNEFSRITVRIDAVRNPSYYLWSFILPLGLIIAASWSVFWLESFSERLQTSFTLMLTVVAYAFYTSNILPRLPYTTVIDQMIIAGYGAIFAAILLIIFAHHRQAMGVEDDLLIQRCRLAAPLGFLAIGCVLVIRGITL
# METHOD: TEVC cysteamine-induced current, ELIC S271A + F303A
# SETTINGS: Xenopus laevis oocytes; ±SD; n=8
MEASURED_METRIC: EC50
In your response, put the unit directly after the numeric value.

EC50 lookup needed for NCCS , thanks.
620 µM

* * *

# TARGET_OF_ASSAY: ELIC G270A (Dickeya chrysanthemi, UniProt P0C7B7, G270A)
# METHOD: TEVC cysteamine-induced current, ELIC G270A
# SETTINGS: Xenopus laevis oocytes; ±SD; n=8
# Text: To examine how different physical interactions at the M4-M1/M3 interface in both GLIC and ELIC (Fig. 1) influence function, we mutated each residue to Ala, and characterized how each mutation influenced agonist-induced channel gating using two-electrode voltage clamp electrophysiology. Both GLIC and ELIC are cation-selective ion channels that transiently gate open in response to agonist binding, although GLIC responds to protons while ELIC responds to primary amines, such as cysteamine, [34]. […]
MEASURED_METRIC: pEC50
// scale note: pEC50 = -log10(conc_M); give the bare number

Which measured pEC50 belongs to NCCS , tested on ELIC G270A (Dickeya chrysanthemi, UniProt P0C7B7, G270A)?
2.99

* * *

# TARGET_OF_ASSAY: ELIC S271A (Dickeya chrysanthemi, UniProt P0C7B7, S271A)
# Sequence (P0C7B7 whole entry S271A): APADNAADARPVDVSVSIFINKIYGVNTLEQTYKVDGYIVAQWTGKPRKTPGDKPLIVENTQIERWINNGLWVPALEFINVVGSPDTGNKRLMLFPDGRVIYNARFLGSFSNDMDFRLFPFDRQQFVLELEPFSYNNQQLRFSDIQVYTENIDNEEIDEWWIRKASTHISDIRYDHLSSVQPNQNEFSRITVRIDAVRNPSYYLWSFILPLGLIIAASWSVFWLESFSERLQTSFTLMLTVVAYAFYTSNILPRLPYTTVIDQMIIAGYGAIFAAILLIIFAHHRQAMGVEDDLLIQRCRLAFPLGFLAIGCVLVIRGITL
# METHOD: TEVC cysteamine-induced current, ELIC S271A
# SETTINGS: Xenopus laevis oocytes; ±SD; n=8
MEASURED_METRIC: pEC50
Lab note — pEC50 values are minus log10 of concentrations in M.

Record request: pEC50 value, item NCCS
3.09

* * *

# TARGET_OF_ASSAY: ELIC L209A (Dickeya chrysanthemi, UniProt P0C7B7, L209A)
# Construct: expressed in transfected cells; host or cells: Xenopus laevis oocytes injected with cRNA
# METHOD: TEVC cysteamine-induced current, ELIC L209A
# Format: cell-based
# SETTINGS: Xenopus laevis oocytes; ±SD; n=8
MEASURED_METRIC: EC50 (µM)
Just the number please, in µM, no unit attached.

State the recorded EC50 for this entry: NCCS
290

* * *

# TARGET_OF_ASSAY: ELIC F281A (Dickeya chrysanthemi, UniProt P0C7B7, F281A)
# Construct: expressed in transfected cells; host or cells: Xenopus laevis oocytes injected with cRNA
# Sequence (P0C7B7 whole entry F281A): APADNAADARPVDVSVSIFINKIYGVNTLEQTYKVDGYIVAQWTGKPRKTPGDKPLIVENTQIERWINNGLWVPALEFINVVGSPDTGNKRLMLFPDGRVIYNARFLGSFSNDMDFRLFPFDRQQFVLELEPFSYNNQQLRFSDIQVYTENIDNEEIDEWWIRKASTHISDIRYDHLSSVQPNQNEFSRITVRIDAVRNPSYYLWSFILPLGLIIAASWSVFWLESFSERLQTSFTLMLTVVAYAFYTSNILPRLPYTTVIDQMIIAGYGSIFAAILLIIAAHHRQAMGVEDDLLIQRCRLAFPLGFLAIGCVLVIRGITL
# METHOD: TEVC cysteamine-induced current, ELIC F281A
# Type: cell-based
# SETTINGS: Xenopus laevis oocytes; ±SD; n=8
MEASURED_METRIC: EC50 (µM)
Value expressed in µM; do not type the unit.

Reported EC50, compound NCCS : ____
880

* * *

# TARGET_OF_ASSAY: ELIC M264A (Dickeya chrysanthemi, UniProt P0C7B7, M264A)
# METHOD: TEVC cysteamine-induced current, ELIC M264A
# SETTINGS: Xenopus laevis oocytes; ±SD; n=8
MEASURED_METRIC: pEC50
Quick note: pEC50 means taking -log10 of the concentration in moles per liter.

Request: pEC50, test system ELIC M264A (Dickeya chrysanthemi, UniProt P0C7B7, M264A), entry NCCS
2.89

* * *

# TARGET_OF_ASSAY: ELIC W219A + F307A (Dickeya chrysanthemi, UniProt P0C7B7, F307A/W219A)
# METHOD: TEVC cysteamine-induced current, ELIC W219A + F307A
# SETTINGS: Xenopus laevis oocytes; ±SD; n=8
MEASURED_METRIC: pEC50
Lab note: report pEC50 as minus log10 of the concentration in molar units, number only.

Given the entry NCCS [cysteamine] , report its measured pEC50.
3.35

* * *

# TARGET_OF_ASSAY: ELIC F222A + C299A (Dickeya chrysanthemi, UniProt P0C7B7, C299A/F222A)
# METHOD: TEVC cysteamine-induced current, ELIC F222A + C299A
# SETTINGS: Xenopus laevis oocytes; ±SD; n=8
MEASURED_METRIC: EC50

Give its EC50 value. Item: NCCS
100 µM

* * *

# TARGET_OF_ASSAY: ELIC W219A (Dickeya chrysanthemi, UniProt P0C7B7, W219A)
# METHOD: TEVC cysteamine-induced current, ELIC W219A
# SETTINGS: Xenopus laevis oocytes; ±SD; n=8
MEASURED_METRIC: EC50 (µM)
Respond with the bare value in µM.

Which EC50 value is on record for NCCS [cysteamine] ?
910
